B1: library; a variant is named by its letters at N, in order (parent)
chain: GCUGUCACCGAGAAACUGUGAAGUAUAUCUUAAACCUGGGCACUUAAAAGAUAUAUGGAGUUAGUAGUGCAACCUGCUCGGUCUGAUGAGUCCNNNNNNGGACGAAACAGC

Variants of: B1
procedureDetails: normalized RNA/DNA level without ligand (relative to sTRSVctl = 100) (log10 (% of sTRSVctl)); HEK293T; ligand: cyclic di-GMP (c-di-GMP-II aptamer); higher = less ribozyme self-cleavage, higher mRNA level
experimentalConditions: reporter: mCherry (pCS4076), ligand present: no
Entries and their measured normalized RNA/DNA level without ligand (log10) follow.
recordedMetric: normalized RNA/DNA level without ligand (log10)

{"columns": ["chain", "number"],
 "data": [
  ["GCUGUCACCGAGAAACUGUGAAGUAUAUCUUAAACCUGGGCACUUAAAAGAUAUAUGGAGUUAGUAGUGCAACCUGCUCGGUCUGAUGAGUCCAACCUCGGACGAAACAGC", 1.76],
  ["GCUGUCACCGAGAAACUGUGAAGUAUAUCUUAAACCUGGGCACUUAAAAGAUAUAUGGAGUUAGUAGUGCAACCUGCUCGGUCUGAUGAGUCCCGAGACGGACGAAACAGC", 1.64],
  ["GCUGUCACCGAGAAACUGUGAAGUAUAUCUUAAACCUGGGCACUUAAAAGAUAUAUGGAGUUAGUAGUGCAACCUGCUCGGUCUGAUGAGUCCAAAGUAGGACGAAACAGC", 1.42],
  ["GCUGUCACCGAGAAACUGUGAAGUAUAUCUUAAACCUGGGCACUUAAAAGAUAUAUGGAGUUAGUAGUGCAACCUGCUCGGUCUGAUGAGUCCAUCUGGGGACGAAACAGC", 1.67],
  ["GCUGUCACCGAGAAACUGUGAAGUAUAUCUUAAACCUGGGCACUUAAAAGAUAUAUGGAGUUAGUAGUGCAACCUGCUCGGUCUGAUGAGUCCUGCCACGGACGAAACAGC", 1.77],
  ["GCUGUCACCGAGAAACUGUGAAGUAUAUCUUAAACCUGGGCACUUAAAAGAUAUAUGGAGUUAGUAGUGCAACCUGCUCGGUCUGAUGAGUCCAAUGCGGGACGAAACAGC", 1.7],
  ["GCUGUCACCGAGAAACUGUGAAGUAUAUCUUAAACCUGGGCACUUAAAAGAUAUAUGGAGUUAGUAGUGCAACCUGCUCGGUCUGAUGAGUCCUUAUGCGGACGAAACAGC", 1.73],
  ["GCUGUCACCGAGAAACUGUGAAGUAUAUCUUAAACCUGGGCACUUAAAAGAUAUAUGGAGUUAGUAGUGCAACCUGCUCGGUCUGAUGAGUCCGCUUUUGGACGAAACAGC", 1.67],
  ["GCUGUCACCGAGAAACUGUGAAGUAUAUCUUAAACCUGGGCACUUAAAAGAUAUAUGGAGUUAGUAGUGCAACCUGCUCGGUCUGAUGAGUCCUACCGGGGACGAAACAGC", 1.68],
  ["GCUGUCACCGAGAAACUGUGAAGUAUAUCUUAAACCUGGGCACUUAAAAGAUAUAUGGAGUUAGUAGUGCAACCUGCUCGGUCUGAUGAGUCCUGACCAGGACGAAACAGC", 1.76],
  ["GCUGUCACCGAGAAACUGUGAAGUAUAUCUUAAACCUGGGCACUUAAAAGAUAUAUGGAGUUAGUAGUGCAACCUGCUCGGUCUGAUGAGUCCAAACGUGGACGAAACAGC", 1.47],
  ["GCUGUCACCGAGAAACUGUGAAGUAUAUCUUAAACCUGGGCACUUAAAAGAUAUAUGGAGUUAGUAGUGCAACCUGCUCGGUCUGAUGAGUCCAAAGAUGGACGAAACAGC", 1.52],
  ["GCUGUCACCGAGAAACUGUGAAGUAUAUCUUAAACCUGGGCACUUAAAAGAUAUAUGGAGUUAGUAGUGCAACCUGCUCGGUCUGAUGAGUCCCGUGGGGGACGAAACAGC", 1.62],
  ["GCUGUCACCGAGAAACUGUGAAGUAUAUCUUAAACCUGGGCACUUAAAAGAUAUAUGGAGUUAGUAGUGCAACCUGCUCGGUCUGAUGAGUCCGAUUUGGGACGAAACAGC", 1.6]
]}
